# Test system: MDA-N
# Assay details: NCI tumour cell line growth inhibition, 48 h
Calls of active or inactive are those of the source. No stated cut-off is given here; in the data, active = GI50 up to about 1.1 µM and inactive = higher.
Value type: GI50

Solved cases (5 shown):
| Molecule | Value type | Reported result |
| --- | --- | --- |
| COc1ccc(/C=C/C(=O)C(C)(C)Br)cc1 | GI50 | 7.57 µM (inactive) |
| O=[N+]([O-])/C(C(Cl)=C(Cl)Cl)=C(/Sc1ccccc1)N1CCOCC1 | GI50 | 3.65 µM (inactive) |
| CC#CC(O)(C(=O)OCCCN(C)C)C1CCCCC1 (stereo unspecified) | GI50 | > 100 µM (inactive) |
| COc1cc2c(cc1O)Cc1c-2[n+](C)cc2cc(OC)c(OC)cc12 | GI50 | 34.9 µM (inactive) |
| Cc1cc2[nH]c3c(C#N)c(-c4ccccc4)c(/C=N/c4ccc(Cl)cc4)c(=O)n3c2cc1C | GI50 | > 100 µM (inactive) |

For the molecule Cc1n[nH]c(=O)n1C1CC1 , what GI50 is on record?
> 100 µM (inactive)

GI50 lookup needed for CS(=O)(=O)OCCCCOS(C)(=O)=O , thanks.
209 µM (inactive)

Which GI50 is reported for this molecule? CO/C(=N\N=C\c1ccc(Cl)c(Cl)c1)c1ccncc1
> 10 µM (inactive)

Please give the measured GI50 for this molecule: CC(C)(C)c1cc2c(O)c(c1)C(c1ccccc1)c1cc(C(C)(C)C)cc(c1O)Cc1cc(C(C)(C)C)cc(c1O)C(c1ccccc1)c1cc(C(C)(C)C)cc(c1O)C2 (stereo unspecified)
> 100 µM (inactive)

What value of measured GI50 is listed for C/C(=N\NC(N)=S)c1nc2cccnc2[nH]1 ?
> 100 µM (inactive)

Which measured GI50 value corresponds to COc1cc(C(O)c2ccc3c(c2)OCO3)cc(OC)c1OC (stereo unspecified) ?
> 100 µM (inactive)

====

# System: DLD-1
# Assay details: NCI tumour cell line growth inhibition, 48 h
Calls of active or inactive are those of the source. Cut-off read from the data, not from the text of the source: active = GI50 up to about 1.1 µM and inactive = higher.
Write down the outcome that applies. Available outcomes: active, inactive

| Compound | Group label |
| --- | --- |
| CCc1ccc(Cc2ccc(CC)c(NC(=O)C(=O)C3NC(=S)NC3=O)c2CC)c(CC)c1NC(=O)C(=O)C1NC(=S)NC1=O (configuration not stated) | inactive |
| CC(=O)O[C@H]1C(=O)O[C@@H]2C[C@H]3C(C)=CC(=O)[C@@H](O)[C@]3(C)[C@H]3[C@@]4(O)OC[C@]32[C@@H]1[C@@H](C)[C@H]4O | active |
| O=C(O)CNS(=O)(=O)c1ccc(NC(=O)c2ccccc2[N+](=O)[O-])cc1 | inactive |
| O=C(c1ccccc1)C(c1ccccc1)C1(O)C(=O)Nc2ccc(Br)cc21 (configuration not stated) | inactive |
| O=C1CSC(C(/N=N/c2ccc(Cl)cc2)c2nc3ccccc3[nH]2)=N1 (configuration not stated) | inactive |
| O=C1C2=C(c3ccccc31)C(c1ccccc1)N1C(=O)CSC1=N2 (configuration not stated) | inactive |

Kindly review the next compound as well.
Answer briefly: the call reported for CCOc1ccc2c(ccc(/C=C/c3cc(C)c4cccnc4c3O)[n+]2C)c1 in this assay.
inactive

====

# System: SNB-75
# Assay details: NCI tumour cell line growth inhibition, 48 h
Calls of active or inactive are those of the source. No stated cut-off is given here; in the data, active = GI50 up to about 1.1 µM and inactive = higher.
In this section we review reported GI50 values for a set of molecules.

| Molecule | System tested | Reported result |
| --- | --- | --- |
| COc1ccc(C2C=C(c3ccc4c(c3)OCO4)Oc3c2c(=O)oc2ccccc32)cc1OC (stereo not drawn) | SNB-75 | 0.344 µM (active) |

// GI50 lookup, key: [O-][N+]1=[N+]([O-])[C@@H](c2ccccc2)[C@H]1c1ccccc1
21.3 µM (inactive)

Look at this molecule and give its reported GI50. O=C1Nc2ccccc2/C1=N/Nc1nc(-c2cccc([N+](=O)[O-])c2)cs1
20.3 µM (inactive)

GI50 lookup needed for Cc1c(/N=N/c2ccccc2)c(-c2ccccc2)n(C2OC(CO)C(O)C(O)C2O)c(=S)c1C#N (stereo not drawn) , thanks.
2.72 µM (inactive)

What does the record list as GI50 for Cc1ccc(NC(=O)/C(CC2Nc3c(ccc4c3C(=O)c3ccccc3C4=O)NC2O)=N/NC(C)(C)C)cc1 (stereo not drawn) ?
25.8 µM (inactive)

Quick check: GI50 of Cc1ccnc2c1ccc1nc3ccccc3n12 ?
31.7 µM (inactive)

Given O=C1CC(c2ccccc2)n2cccc21 (stereo not drawn) , state its recorded GI50.
> 100 µM (inactive)

Which measured GI50 value corresponds to COc1cc(/C=C2\S/C(=N/Nc3nc(-c4ccc(Br)cc4)cs3)NC2=O)cc(OC)c1OC ?
9.2 µM (inactive)

Reference for the values: ChEMBL document CHEMBL1201862
